Assay: ATG_Ets_CIS: Attagene CIS-FACTORIAL HepG2 Assay for human Erythroblast Transformation Specific (ETS) (AID 2282941)
Conditions: HepG2 ETS cis-reporter transcription, actives raise or lower the signal
Active and inactive are the calls of the source. How the source made its calls: active means hit-call score of the fitted dose curve at least 0.9, where 1 is the maximum; inactive means score below 0.9.
The reply should name one outcome from active, inactive

- compound: "Cc1cccc(OP(=O)(Oc2cccc(C)c2)Oc2cccc(C)c2)c1"
  qualitative-label: "inactive"
- compound: "O=C1c2ccccc2C(=O)C1C(=O)C(c1ccccc1)c1ccc(Cl)cc1 (stereo unspecified)"
  qualitative-label: "active"
- compound: "CCOP(=S)(OCC)SCSc1cc(Cl)ccc1Cl"
  qualitative-label: "inactive"

[Q] Which outcome was assigned to C=CCc1ccccc1O in this test?
[A] inactive

[Q] Then this compound: Clc1cc(C(Cl)(Cl)Cl)cnc1Cl
[A] inactive

[Q] Also need FC(F)OCC(F)(F)C(F)(F)F , thanks.
[A] inactive

[Q] Same question for O=[N+]([O-])c1cccc2ccccc12 please.
[A] inactive

[Q] Same lookup for CNC(=O)O/N=C/C(C)(C)S(C)(=O)=O , please.
[A] inactive

[Q] And the next one, ClCc1ccccc1CCl ?
[A] active

[Q] Can you handle O=NN1CCCCCCC1 next?
[A] inactive
